target: UniProtKB P23458; experiment: Jak biochemical HTRF assay, JAK1; conditions: HTRF biochemical assay, recombinant GST-tagged catalytic domain; read-out: JAK1 IC50
Sequence (P23458 875-1153): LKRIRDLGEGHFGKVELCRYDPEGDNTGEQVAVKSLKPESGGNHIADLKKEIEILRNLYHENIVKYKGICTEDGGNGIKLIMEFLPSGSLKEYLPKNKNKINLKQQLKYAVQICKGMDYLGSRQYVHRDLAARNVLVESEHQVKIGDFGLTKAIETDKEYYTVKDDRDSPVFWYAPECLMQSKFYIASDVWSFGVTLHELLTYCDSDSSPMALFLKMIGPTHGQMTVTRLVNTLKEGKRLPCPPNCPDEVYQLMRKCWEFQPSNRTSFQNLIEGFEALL
Value kind: IC50 (nM)

// field: IC50; key: CN(C)Cc1cccc(Nc2nn([C@H]3CCCC[C@@H]3C#N)c3cc[nH]c(=O)c23)c1 [Example 3-34] ; value = 1.1

[I] C[C@H](NC1CCC(n2nc(Nc3ccc(Cl)cc3)c3c(=O)[nH]ccc32)C(C#N)C1)C1CC1 (stereo in doubt) [Example 4-2]
[II] CC(C)[C@@H](C)N1Cc2ccc(Nc3nn([C@H]4CCCC[C@@H]4C#N)c4cc[nH]c(=O)c34)cc2C1 [Example 3-149]
Challenge: Please indicate which entry, I or II , has the lower recorded IC50 value. Lab note: record the label of whichever item you select.
Response given: II
(II: 0.48 nM, I: 84 nM)
